Data credit: ChEMBL document CHEMBL4422685

# measurement-target: Multidrug efflux pump subunit AcrB (Escherichia coli (strain K12))
# protocol-text: Inhibition of AcrB in wild-type drug-resistant Escherichia coli […] assessed as potentiation of tetraphenyl phosphonium chloride-induced antimicrobial activity by measuring tetraphenyl phosphonium chloride MIC at 32 ug/ml by checkerboard titration method (reference value: 1024 ug/ml)
Entries and their measured MIC follow.
The figure you give is taken to be in µg/mL; do not add the unit.

Worked examples, 5 compounds total:
[
  {
    "compound": "COc1cccc2cc3c(cc12)C(=O)N(C1CCCC1)C3=O",
    "reported": 1020
  },
  {
    "compound": "COc1ccccc1CN1C(=O)c2cc3cccc(OC)c3cc2C1=O",
    "reported": 1020
  },
  {
    "compound": "COc1cccc2cc3c(cc12)C(=O)N(C(C)C)C3=O",
    "reported": 1020
  },
  {
    "compound": "CCCCCCN1C(=O)c2cc3cccc(OC)c3cc2C1=O",
    "reported": 512
  },
  {
    "compound": "COc1cccc2cc3c(cc12)C(=O)N(C(C)(C)C)C3=O",
    "reported": 1020
  }
]

Exercise: Data request, read-out MIC, for `CCc1ccccc1N1C(=O)c2cc3cccc(OC)c3cc2C1=O`
Solution: 1020

----------
# measurement-target: Multidrug efflux pump subunit AcrB (Escherichia coli (strain K12)) (UniProt P31224)
# protocol-text: Inhibition of AcrB in wild-type drug-resistant Escherichia coli […] assessed as potentiation of levofloxacin-induced antimicrobial activity by measuring levofloxacin MIC at 64 ug/ml by checkerboard titration method (reference value: 0.063 ug/ml)
quantity: MIC (µg/mL)
The figure you give is taken to be in µg/mL; do not add the unit.

[
  {
    "compound": "COc1cccc2cc3c(cc12)C(=O)N(C1CCCC1)C3=O",
    "output-unit": "µg/mL",
    "MIC": 0.063
  }
]

Exercise: Data request, read-out MIC, for `CCCCCCN1C(=O)c2cc3cccc(OC)c3cc2C1=O`
Solution: 0.063

Exercise: Data request, read-out MIC, for `COc1cccc2cc3c(cc12)C(=O)N(C(C)C)C3=O`
Solution: 0.0313

Exercise: Data request, read-out MIC, for `COc1cccc2cc3c(cc12)C(=O)N(c1ccccc1Cl)C3=O`
Solution: 0.063

Exercise: Data request, read-out MIC, for `COc1cccc2cc3c(cc12)C(=O)N(C(C)(C)C)C3=O`
Solution: 0.063

Exercise: Data request, read-out MIC, for `COc1cccc2cc3c(cc12)C(=O)N(C)C3=O`
Solution: 0.0313

Exercise: Data request, read-out MIC, for `COc1ccccc1CN1C(=O)c2cc3cccc(OC)c3cc2C1=O`
Solution: 0.0019

Exercise: Data request, read-out MIC, for `COc1cccc2cc3c(cc12)C(=O)N(Cc1ccccc1Cl)C3=O`
Solution: 0.063

----------
Entries and their measured MIC follow.
# measurement-target: Multidrug efflux pump subunit AcrB (Escherichia coli (strain K12)) (UniProt P31224)
# protocol-text: Inhibition of AcrB in wild-type drug-resistant Escherichia coli […] assessed as potentiation of tetraphenyl phosphonium chloride-induced antimicrobial activity by measuring tetraphenyl phosphonium chloride MIC at 128 ug/ml by checkerboard titration method (reference value: 1024 ug/ml)
The figure you give is taken to be in mg/L; do not add the unit.

Worked examples, 5 compounds total:
[
  {
    "compound": "CCCCCN1C(=O)c2cc3cccc(OC)c3cc2C1=O",
    "output-unit": "mg/L",
    "reported": 512
  },
  {
    "compound": "COc1ccccc1CN1C(=O)c2cc3cccc(OC)c3cc2C1=O",
    "output-unit": "mg/L",
    "reported": 512
  },
  {
    "compound": "COc1cccc2cc3c(cc12)C(=O)N(C)C3=O",
    "output-unit": "mg/L",
    "reported": 1020
  },
  {
    "compound": "COc1cccc2cc3c(cc12)C(=O)N(C(C)C)C3=O",
    "output-unit": "mg/L",
    "reported": 512
  },
  {
    "compound": "COc1cccc2cc3c(cc12)C(=O)N(c1ccccc1Cl)C3=O",
    "output-unit": "mg/L",
    "reported": 512
  }
]

Exercise: Data request, read-out MIC, for `COc1cccc2cc3c(cc12)C(=O)N(C1CCCC1)C3=O`
Solution: 1020

Exercise: Data request, read-out MIC, for `CCc1ccccc1N1C(=O)c2cc3cccc(OC)c3cc2C1=O`
Solution: 512

Exercise: Data request, read-out MIC, for `COc1cccc2cc3c(cc12)C(=O)N(C(C)(C)C)C3=O`
Solution: 512

Exercise: Data request, read-out MIC, for `CCCCCCN1C(=O)c2cc3cccc(OC)c3cc2C1=O`
Solution: 128

Exercise: Data request, read-out MIC, for `COc1cccc2cc3c(cc12)C(=O)N(Cc1ccccc1Cl)C3=O`
Solution: 512

Exercise: Data request, read-out MIC, for `COc1ccc(CN2C(=O)c3cc4cccc(OC)c4cc3C2=O)cc1`
Solution: 1020

Exercise: Data request, read-out MIC, for `COc1cccc2cc3c(cc12)C(=O)N(Cc1ccccc1)C3=O`
Solution: 512

----------
Entries and their measured MIC follow.
# measurement-target: Multidrug efflux pump subunit AcrB (Escherichia coli (strain K12)) (UniProt P31224)
# Sequence (whole entry): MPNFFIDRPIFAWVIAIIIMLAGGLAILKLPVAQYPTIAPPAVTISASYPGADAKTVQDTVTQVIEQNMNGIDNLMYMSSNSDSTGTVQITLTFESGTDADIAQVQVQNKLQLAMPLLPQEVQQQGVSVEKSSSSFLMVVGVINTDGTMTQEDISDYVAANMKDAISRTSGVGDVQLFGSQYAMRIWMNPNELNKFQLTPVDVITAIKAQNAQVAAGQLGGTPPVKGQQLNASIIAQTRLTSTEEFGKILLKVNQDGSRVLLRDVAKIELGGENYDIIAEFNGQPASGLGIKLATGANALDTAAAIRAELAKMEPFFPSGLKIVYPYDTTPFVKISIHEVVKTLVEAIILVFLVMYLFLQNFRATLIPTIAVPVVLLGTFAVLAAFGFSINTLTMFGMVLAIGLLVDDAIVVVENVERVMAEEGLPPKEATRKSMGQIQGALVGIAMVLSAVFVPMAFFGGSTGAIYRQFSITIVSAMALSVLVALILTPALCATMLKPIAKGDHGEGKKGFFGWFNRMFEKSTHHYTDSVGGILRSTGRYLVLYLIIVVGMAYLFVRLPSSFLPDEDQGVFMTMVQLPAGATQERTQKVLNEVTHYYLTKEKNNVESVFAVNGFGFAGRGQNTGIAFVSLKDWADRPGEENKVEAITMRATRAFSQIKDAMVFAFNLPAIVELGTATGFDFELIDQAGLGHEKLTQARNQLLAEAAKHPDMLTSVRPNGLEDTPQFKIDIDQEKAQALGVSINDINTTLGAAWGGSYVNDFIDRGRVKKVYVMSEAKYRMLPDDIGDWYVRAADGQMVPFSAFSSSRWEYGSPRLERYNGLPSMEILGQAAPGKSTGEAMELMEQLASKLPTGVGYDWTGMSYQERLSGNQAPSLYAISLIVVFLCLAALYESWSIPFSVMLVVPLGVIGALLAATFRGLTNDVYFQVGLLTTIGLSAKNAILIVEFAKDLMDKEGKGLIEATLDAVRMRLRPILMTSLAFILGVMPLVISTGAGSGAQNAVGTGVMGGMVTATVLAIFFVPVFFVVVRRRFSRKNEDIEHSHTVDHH
# protocol-text: Inhibition of AcrB in wild-type drug-resistant Escherichia coli […] assessed as potentiation of levofloxacin-induced antimicrobial activity by measuring levofloxacin MIC at 8 ug/ml by checkerboard titration method (reference value: 0.063 ug/ml)
The figure you give is taken to be in µg/mL; do not add the unit.

Worked examples, 3 compounds total:
[
  {
    "compound": "COc1ccccc1CN1C(=O)c2cc3cccc(OC)c3cc2C1=O",
    "measurement-target": "Multidrug efflux pump subunit AcrB (Escherichia coli (strain K12)) (UniProt P31224)",
    "MIC [µg/mL]": 0.016
  },
  {
    "compound": "CCCCCN1C(=O)c2cc3cccc(OC)c3cc2C1=O",
    "measurement-target": "Multidrug efflux pump subunit AcrB (Escherichia coli (strain K12)) (UniProt P31224)",
    "MIC [µg/mL]": 0.063
  },
  {
    "compound": "CCCCCCN1C(=O)c2cc3cccc(OC)c3cc2C1=O",
    "measurement-target": "Multidrug efflux pump subunit AcrB (Escherichia coli (strain K12)) (UniProt P31224)",
    "MIC [µg/mL]": 0.063
  }
]

Exercise: Data request, read-out MIC, for `COc1cccc2cc3c(cc12)C(=O)N(C(C)C)C3=O`
Solution: 0.063

Exercise: Data request, read-out MIC, for `CCc1ccccc1N1C(=O)c2cc3cccc(OC)c3cc2C1=O`
Solution: 0.063

Exercise: Data request, read-out MIC, for `COc1cccc2cc3c(cc12)C(=O)N(c1ccccc1Cl)C3=O`
Solution: 0.063
